# Measured On: T1, human LAG-3 on cells (HEK293-hLAG-3 stable cell line) (human, UniProt P18627 23-525)
# T1 sequence: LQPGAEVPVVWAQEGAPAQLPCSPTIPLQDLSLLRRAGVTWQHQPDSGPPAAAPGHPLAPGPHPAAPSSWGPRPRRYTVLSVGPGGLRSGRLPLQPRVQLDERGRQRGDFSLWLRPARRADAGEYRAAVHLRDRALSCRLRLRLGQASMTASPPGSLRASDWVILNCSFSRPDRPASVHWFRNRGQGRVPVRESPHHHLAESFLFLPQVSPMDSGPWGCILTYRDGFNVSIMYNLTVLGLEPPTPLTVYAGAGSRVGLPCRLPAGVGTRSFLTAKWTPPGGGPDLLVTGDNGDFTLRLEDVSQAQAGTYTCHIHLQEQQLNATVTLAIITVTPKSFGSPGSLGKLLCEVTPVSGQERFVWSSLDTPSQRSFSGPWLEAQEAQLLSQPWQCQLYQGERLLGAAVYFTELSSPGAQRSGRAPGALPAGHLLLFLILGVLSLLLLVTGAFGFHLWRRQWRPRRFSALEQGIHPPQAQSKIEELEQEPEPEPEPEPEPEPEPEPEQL
# Experimental Protocol: FACS, HEK293-hLAG-3, antibody 1.6 nM
Assay Endpoint: Mean fluorescence intensity

Solved entries (count: 4):
556F6B8-2 humanized antibody (antibody, V domains shown) VH: QVQLQESGPGLVKPSETLSLTCTVSGFSIIKYGVHWIRQPPGKGLEWIGVIWRGGITDYNAAFMSRVTISVDTSKNQFSLKLSSVTAADTAVYYCARWDGPLAMDYWGQGTTVTVSS VL: DIQLTQSPSFLSASVGDRVTITCKASQDVGTTVAWYQQKPGKAPKLLIYWASTRHTGVPSRFSGSGSGTEFTLTISSLQPEDFATYYCQQYSSYPYTFGQGTKLEIK	23
556F6B8-6 humanized antibody (antibody, V domains shown) VH: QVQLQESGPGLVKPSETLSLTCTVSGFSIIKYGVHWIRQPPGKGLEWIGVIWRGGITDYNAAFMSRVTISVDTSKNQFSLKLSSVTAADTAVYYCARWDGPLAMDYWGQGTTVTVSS VL: DIVLTQSPSFLSASVGDRVTITCKASQDVGTTVAWYQQKPGKAPKLLIYWASTRHTGVPSRFSGSGSGTEFTLTISSLQPEDFATYYCQQYSSYPYTFGQGTKLEIK	23
556F6B8-11 humanized antibody (antibody, V domains shown) VH: QVQLQESGPGLVKPSETLSLTCTVSGFSLIKYGVHWIRQPPGKGLEWIGVIWRGGITDYNAAFMSRVTISKDTSKSQVSLKLSSVTAADTAVYYCARWDGPLAMDYWGQGTTVTVSS VL: DIVLTQSPSFLSASVGDRVTITCKASQDVGTTVAWYQQKPGKSPKLLIYWASTRHTGVPSRFSGSGSGTEFTLTISSLQPEDFATYYCQQYSSYPYTFGQGTKLEIK	87
556F6B8-3 humanized antibody (antibody, V domains shown) VH: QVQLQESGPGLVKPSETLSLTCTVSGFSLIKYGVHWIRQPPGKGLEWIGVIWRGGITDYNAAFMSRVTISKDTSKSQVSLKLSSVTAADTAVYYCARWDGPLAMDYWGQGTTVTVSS VL: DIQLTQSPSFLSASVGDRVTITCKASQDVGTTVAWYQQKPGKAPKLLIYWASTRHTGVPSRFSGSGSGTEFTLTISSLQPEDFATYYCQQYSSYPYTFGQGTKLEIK	83

Next up:
Return Mean fluorescence intensity for the following binder: 556F6B8-4 humanized antibody (antibody, V domains shown) VH: RVQLQESGPGLVKPSETLSLTCTVSGFSLIKYGVHWIRQPPGKGLEWIGVIWRGGITDYNAAFMSRVTISKDTSKSQVSLKLSSVTAADTAVYYCAKWDGPLAMDYWGQGTTVTVSS VL: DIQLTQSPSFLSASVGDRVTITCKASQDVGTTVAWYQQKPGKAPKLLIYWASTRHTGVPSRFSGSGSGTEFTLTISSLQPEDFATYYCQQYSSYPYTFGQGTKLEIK
62
